# target of assay: FimH (Escherichia coli, UniProt Q1R2J4);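 also: hemagglutination inhibition of guinea pig erythrocytes agglutinated by type 1 piliated uropathogenic E. coli via FimH mannose binding, quantified through serial dilutions of compound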
# condition details: Table 19; Examples 30-36 numbering
Where HAI Titer EC>90 equals or exceeds 1 µM, the correct label is yes (1); where it does not, the label is no (0).

{"compound": "COC(=O)c1cncc(-c2ccc(O[C@H]3O[C@H](CO)[C@@H](O)[C@H](O)[C@@H]3O)cc2)c1 [Compound 12b]", "class label": "no (0)"}
{"compound": "COC(=O)c1sc(-c2ccc(O[C@H]3O[C@H](CO)[C@@H](O)[C@H](O)[C@@H]3O)cc2)cc1NC(N)=O [Compound 13a]", "class label": "no (0)"}
{"compound": "COC(=O)c1cc(-c2ccc(O[C@H]3O[C@H](CO)[C@@H](O)[C@H](O)[C@@H]3O)cc2)ccn1 [Compound 12a]", "class label": "no (0)"}
{"compound": "COC(=O)c1csc(-c2ccc(O[C@H]3O[C@H](CO)[C@@H](O)[C@H](O)[C@@H]3O)cc2)c1 [Compound 13d]", "class label": "yes (1)"}
